- targetSystem: JAK2 (Homo sapiens, UniProt O60674)
- Sequence (O60674 whole entry): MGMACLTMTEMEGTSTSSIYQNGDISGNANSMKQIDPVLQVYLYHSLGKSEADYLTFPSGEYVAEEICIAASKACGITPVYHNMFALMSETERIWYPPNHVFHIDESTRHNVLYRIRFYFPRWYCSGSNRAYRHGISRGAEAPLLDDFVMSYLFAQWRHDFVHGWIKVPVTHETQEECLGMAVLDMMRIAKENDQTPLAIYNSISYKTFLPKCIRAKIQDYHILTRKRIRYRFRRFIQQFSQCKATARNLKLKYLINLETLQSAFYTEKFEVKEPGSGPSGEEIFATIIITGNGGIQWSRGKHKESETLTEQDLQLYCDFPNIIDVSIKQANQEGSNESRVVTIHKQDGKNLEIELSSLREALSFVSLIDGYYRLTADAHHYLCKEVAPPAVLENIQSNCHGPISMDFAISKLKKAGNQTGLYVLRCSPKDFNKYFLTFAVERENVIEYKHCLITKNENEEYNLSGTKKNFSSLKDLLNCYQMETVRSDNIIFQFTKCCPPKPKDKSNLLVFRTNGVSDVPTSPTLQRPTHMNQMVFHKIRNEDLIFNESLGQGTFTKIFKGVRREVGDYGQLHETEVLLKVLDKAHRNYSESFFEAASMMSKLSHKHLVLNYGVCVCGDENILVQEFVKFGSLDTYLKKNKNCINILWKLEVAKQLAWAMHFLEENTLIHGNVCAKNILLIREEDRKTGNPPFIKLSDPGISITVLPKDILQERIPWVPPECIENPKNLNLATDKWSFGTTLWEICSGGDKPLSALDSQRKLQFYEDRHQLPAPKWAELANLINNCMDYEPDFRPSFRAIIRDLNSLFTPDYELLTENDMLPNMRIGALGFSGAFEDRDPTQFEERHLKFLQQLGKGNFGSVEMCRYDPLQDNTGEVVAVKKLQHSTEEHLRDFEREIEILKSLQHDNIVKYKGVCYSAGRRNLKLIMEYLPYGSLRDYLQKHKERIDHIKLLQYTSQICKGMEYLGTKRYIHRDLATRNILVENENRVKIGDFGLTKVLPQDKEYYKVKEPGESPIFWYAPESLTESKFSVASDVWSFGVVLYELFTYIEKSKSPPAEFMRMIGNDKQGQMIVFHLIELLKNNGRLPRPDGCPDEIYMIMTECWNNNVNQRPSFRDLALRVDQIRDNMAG
- assayNotes: JAK2 kinase activity test at molecular level (Z'-LYTE FRET)
- Format: biochemical
- conditionDetails: Table 1; read-out: JAK2 kinase activity IC50
pIC50: −log10 of the molar value.
observedProperty: pIC50

1. C[C@@H](Oc1cc(-c2cnn(C3CCOCC3)c2)cnc1N)c1c(Cl)ccc(F)c1Cl
7.19

1 = CC(Oc1cc(-c2ccc(N3CCNCC3)cc2)cnc1N)c1cc(F)ccc1Cl (stereo not shown)
2 = CCC(Oc1cc(-c2cnn(C3CCNCC3)c2)cnc1N)c1c(Cl)ccc(F)c1Cl (stereo not shown)
3 = C[C@@H](Oc1cc(-c2cnn(C3CCNCC3)c2)cnc1N)c1ccccc1
[Q] Endpoint returns the given molecules ordered by ascending pIC50. Returns: the labels arranged in the requested order.
[A] 3, 2, 1
(3: 6.67, 2: 7.00, 1: 7.43)
